PROTOCOL TEXT: SAD study plasma PK, single oral dose, healthy young subjects
Format: in vivo, human
CONDITION LABEL: human, plasma, po, 60 mg, Cmax, Mean (SD), single oral dose 60 mg, n=6
MEASUREMENT LABEL: Cmax

SMILES: Cn1c(-c2ccc(C(N)=O)cc2F)nnc1C(C)(C)Oc1c(F)cc(Cl)cc1F
MEASUREMENT LABEL: Cmax
MEASUREMENT: 595 ng/mL

----------
PROTOCOL TEXT: SAD study plasma PK, single oral dose, healthy young subjects
Type: in vivo, human
CONDITION LABEL: human, plasma, po, 60 mg, Cmax, Min–max, single oral dose 60 mg, n=6

SMILES: Cn1c(-c2ccc(C(N)=O)cc2F)nnc1C(C)(C)Oc1c(F)cc(Cl)cc1F
Cmax: 439 to 865 ng/mL

----------
PROTOCOL TEXT: SAD study plasma PK, single oral dose, healthy young subjects
Assay type: in vivo, human
CONDITION LABEL: human, plasma, po, 30 mg, Tmax, Median, single oral dose 30 mg, n=6
MEASUREMENT LABEL: Tmax

SMILES: Cn1c(-c2ccc(C(N)=O)cc2F)nnc1C(C)(C)Oc1c(F)cc(Cl)cc1F
MEASUREMENT: 3.5 h

----------
PROTOCOL TEXT: SAD study plasma PK, single oral dose, healthy young subjects
Type: in vivo, human
CONDITION LABEL: human, plasma, po, 30 mg, t½, Mean (SD), single oral dose 30 mg, n=6

COMPOUND: Cn1c(-c2ccc(C(N)=O)cc2F)nnc1C(C)(C)Oc1c(F)cc(Cl)cc1F [ASP3662]
half-life (h): 17.6

----------
PROTOCOL TEXT: SAD study plasma PK, single oral dose, healthy young subjects
Format: in vivo, human
CONDITION LABEL: human, plasma, po, 6 mg, AUCinf, Mean (SD), single oral dose 6 mg, n=6
MEASUREMENT LABEL: AUC(0-inf) (ng·h/mL)

SMILES: Cn1c(-c2ccc(C(N)=O)cc2F)nnc1C(C)(C)Oc1c(F)cc(Cl)cc1F
UNIT STRING: ng·h/mL
MEASUREMENT: 405

----------
PROTOCOL TEXT: SAD study plasma PK, single oral dose, healthy young subjects
Assay type: in vivo, human
CONDITION LABEL: human, plasma, po, 6 mg, t½, Min–max, single oral dose 6 mg, n=6
MEASUREMENT LABEL: half-life

COMPOUND: Cn1c(-c2ccc(C(N)=O)cc2F)nnc1C(C)(C)Oc1c(F)cc(Cl)cc1F [ASP3662]
MEASUREMENT: 28.5 to 46.3 h

----------
PROTOCOL TEXT: SAD study plasma PK, single oral dose, healthy young subjects
Assay type: in vivo, human
CONDITION LABEL: human, plasma, po, 30 mg, AUCinf, Median, single oral dose 30 mg, n=6

COMPOUND: Cn1c(-c2ccc(C(N)=O)cc2F)nnc1C(C)(C)Oc1c(F)cc(Cl)cc1F [ASP3662]
UNIT STRING: ng·h/mL
AUC(0-inf): 3370

----------
PROTOCOL TEXT: SAD study plasma PK, single oral dose, healthy young subjects
Format: in vivo, human
CONDITION LABEL: human, plasma, po, 60 mg, t½, Median, single oral dose 60 mg, n=6
MEASUREMENT LABEL: half-life (h)

COMPOUND: Cn1c(-c2ccc(C(N)=O)cc2F)nnc1C(C)(C)Oc1c(F)cc(Cl)cc1F [ASP3662]
MEASUREMENT: 14.6

----------
PROTOCOL TEXT: SAD study plasma PK, single oral dose, healthy young subjects
Type: in vivo, human
CONDITION LABEL: human, plasma, po, 30 mg, t½, Median, single oral dose 30 mg, n=6

COMPOUND: Cn1c(-c2ccc(C(N)=O)cc2F)nnc1C(C)(C)Oc1c(F)cc(Cl)cc1F [ASP3662]
half-life (h): 17.4

----------
PROTOCOL TEXT: SAD study plasma PK, single oral dose, healthy young subjects
Assay type: in vivo, human
CONDITION LABEL: human, plasma, po, 60 mg, t½, Mean (SD), single oral dose 60 mg, n=6
MEASUREMENT LABEL: half-life (h)

SMILES: Cn1c(-c2ccc(C(N)=O)cc2F)nnc1C(C)(C)Oc1c(F)cc(Cl)cc1F
UNIT STRING: h
MEASUREMENT: 14.8

----------
PROTOCOL TEXT: SAD study plasma PK, single oral dose, healthy young subjects
Type: in vivo, human
CONDITION LABEL: human, plasma, po, 10 mg, AUCinf, Median, single oral dose 10 mg, n=3
MEASUREMENT LABEL: AUC(0-inf) (ng·h/mL)

SMILES: Cn1c(-c2ccc(C(N)=O)cc2F)nnc1C(C)(C)Oc1c(F)cc(Cl)cc1F
MEASUREMENT: 953

----------
PROTOCOL TEXT: SAD study plasma PK, single oral dose, healthy young subjects
Assay type: in vivo, human
CONDITION LABEL: human, plasma, po, 1 mg, Tmax, Median, single oral dose 1 mg, n=2
MEASUREMENT LABEL: Tmax (min)

COMPOUND: Cn1c(-c2ccc(C(N)=O)cc2F)nnc1C(C)(C)Oc1c(F)cc(Cl)cc1F [ASP3662]
MEASUREMENT LABEL: Tmax
UNIT STRING: min
MEASUREMENT: 45

----------
PROTOCOL TEXT: SAD study plasma PK, single oral dose, healthy young subjects
Assay type: in vivo, human
CONDITION LABEL: human, plasma, po, 1 mg, Cmax, Mean (SD), single oral dose 1 mg, n=6

SMILES: Cn1c(-c2ccc(C(N)=O)cc2F)nnc1C(C)(C)Oc1c(F)cc(Cl)cc1F
Cmax (ng/mL): 0.0433

----------
PROTOCOL TEXT: SAD study plasma PK, single oral dose, healthy young subjects
Type: in vivo, human
CONDITION LABEL: human, plasma, po, 30 mg, Cmax, Min–max, single oral dose 30 mg, n=6
MEASUREMENT LABEL: Cmax

SMILES: Cn1c(-c2ccc(C(N)=O)cc2F)nnc1C(C)(C)Oc1c(F)cc(Cl)cc1F
MEASUREMENT: 151 to 386 ng/mL

----------
PROTOCOL TEXT: SAD study plasma PK, single oral dose, healthy young subjects
Format: in vivo, human
CONDITION LABEL: human, plasma, po, 3 mg, Tmax, Min–max, single oral dose 3 mg, n=6
MEASUREMENT LABEL: Tmax

COMPOUND: Cn1c(-c2ccc(C(N)=O)cc2F)nnc1C(C)(C)Oc1c(F)cc(Cl)cc1F [ASP3662]
MEASUREMENT: 1 to 4.02 h

----------
PROTOCOL TEXT: SAD study plasma PK, single oral dose, healthy young subjects
Assay type: in vivo, human
CONDITION LABEL: human, plasma, po, 6 mg, Cmax, Mean (SD), single oral dose 6 mg, n=6

SMILES: Cn1c(-c2ccc(C(N)=O)cc2F)nnc1C(C)(C)Oc1c(F)cc(Cl)cc1F
Cmax [ng/mL]: 28

----------
PROTOCOL TEXT: SAD study plasma PK, single oral dose, healthy young subjects
Assay type: in vivo, human
CONDITION LABEL: human, plasma, po, 10 mg, AUCinf, Min–max, single oral dose 10 mg, n=3
MEASUREMENT LABEL: AUC(0-inf)

SMILES: Cn1c(-c2ccc(C(N)=O)cc2F)nnc1C(C)(C)Oc1c(F)cc(Cl)cc1F
MEASUREMENT LABEL: AUC(0-inf)
MEASUREMENT: 620 to 1000 ng·h/mL

----------
PROTOCOL TEXT: SAD study plasma PK, single oral dose, healthy young subjects
Type: in vivo, human
CONDITION LABEL: human, plasma, po, 30 mg, Cmax, Median, single oral dose 30 mg, n=6
MEASUREMENT LABEL: Cmax (ng/mL)

SMILES: Cn1c(-c2ccc(C(N)=O)cc2F)nnc1C(C)(C)Oc1c(F)cc(Cl)cc1F
MEASUREMENT: 239

----------
PROTOCOL TEXT: SAD study plasma PK, single oral dose, healthy young subjects
Type: in vivo, human
CONDITION LABEL: human, plasma, po, 6 mg, AUCinf, Median, single oral dose 6 mg, n=6
MEASUREMENT LABEL: AUC(0-inf) (ng·h/mL)

MOLECULE: Cn1c(-c2ccc(C(N)=O)cc2F)nnc1C(C)(C)Oc1c(F)cc(Cl)cc1F [ASP3662]
MEASUREMENT: 410

----------
PROTOCOL TEXT: SAD study plasma PK, single oral dose, healthy young subjects
Type: in vivo, human
CONDITION LABEL: human, plasma, po, 6 mg, t½, Mean (SD), single oral dose 6 mg, n=6

COMPOUND: Cn1c(-c2ccc(C(N)=O)cc2F)nnc1C(C)(C)Oc1c(F)cc(Cl)cc1F [ASP3662]
half-life [h]: 37.7

----------
PROTOCOL TEXT: SAD study plasma PK, single oral dose, healthy young subjects
Assay type: in vivo, human
CONDITION LABEL: human, plasma, po, 10 mg, Cmax, Min–max, single oral dose 10 mg, n=6

SMILES: Cn1c(-c2ccc(C(N)=O)cc2F)nnc1C(C)(C)Oc1c(F)cc(Cl)cc1F
Cmax: 49 to 93.6 ng/mL
